# Tested on: E. faecalis ATCC29212
# Assay type: cell-based
# run parameters: ATCC29212
Measured MIC E. faecalis ATCC29212, listed per entry.

compound	study system	readout relation	MIC E. faecalis ATCC29212 [µg/mL]
C=C1NC(=O)C2NC(=O)[C@H](CC(C)C)NC(=O)C(NC(=O)[C@@H]3CSC(C)C(NC(=O)[C@H](Cc4ccccc4)NC(=O)C4NC(=O)[C@@H](N)CSC4C)C(=O)N[C@@H](CC(C)C)C(=O)N4CCC[C@H]4C(=O)NCC(=O)NCC(=O)N[C@@H](Cc4c[nH]cn4)C(=O)NCC(=O)N[C@@H](C(C)C)C(=O)N3)C(C)SC[C@H](NC(=O)[C@H](CCC(=O)O)NC1=O)C(=O)N[C@@H]([C@@H](C)CC)C(=O)NC=CSC2C (some centres unmarked) [G9H]	E. faecalis ATCC29212	>	64
C=C1NC(=O)C2NC(=O)[C@H]([C@@H](C)CC)NC(=O)C(NC(=O)[C@@H]3CSC(C)C(NC(=O)[C@H](Cc4ccccc4)NC(=O)C4NC(=O)[C@@H](N)CSC4C)C(=O)N[C@@H](CC(C)C)C(=O)N4CCC[C@H]4C(=O)NCC(=O)NCC(=O)NCC(=O)NCC(=O)N[C@@H](C(C)C)C(=O)N3)C(C)SC[C@H](NC(=O)[C@H](CCC(=O)O)NC1=O)C(=O)N[C@@H]([C@@H](C)CC)C(=O)NC=CSC2C (some centres unmarked) [L14I]	E. faecalis ATCC29212	=	32

###

# Tested on: E. faecium 7131121 VRE
# Assay type: cell-based
# run parameters: 7131121 VRE
Measured MIC E. faecium 7131121 VRE, listed per entry.

molecule	readout relation	MIC E. faecium 7131121 VRE / µg/mL
CC=C1NC(=O)C2NC(=O)[C@H](CC(C)C)NC(=O)C(NC(=O)[C@@H]3CSC(C)C(NC(=O)[C@H](Cc4ccccc4)NC(=O)C4NC(=O)[C@@H](N)CSC4C)C(=O)N[C@@H](CC(C)C)C(=O)N4CCC[C@H]4C(=O)NCC(=O)NCC(=O)NCC(=O)NCC(=O)N[C@@H](C(C)C)C(=O)N3)C(C)SC[C@H](NC(=O)[C@H](CCC(=O)O)NC1=O)C(=O)N[C@@H]([C@@H](C)CC)C(=O)NC=CSC2C (some centres unmarked) [S16Db]	=	64
C=C1NC(=O)C2NC(=O)[C@H](CC(C)C)NC(=O)C(NC(=O)[C@@H]3CSC(C)C(NC(=O)[C@H](Cc4ccccc4)NC(=O)C4NC(=O)[C@@H](N)CSC4C)C(=O)N[C@@H](CC(C)C)C(=O)N4CCC[C@H]4C(=O)NCC(=O)NCC(=O)NCC(=O)N[C@@H](Cc4ccc(O)cc4)C(=O)N[C@@H](C(C)C)C(=O)N3)C(C)SC[C@H](NC(=O)[C@H](CCC(=O)O)NC1=O)C(=O)N[C@@H]([C@@H](C)CC)C(=O)NC=CSC2C (some centres unmarked) [G10Y]	>	64

###

# Test system: E. faecalis ATCC29212
# Format: cell-based
# run parameters: ATCC29212
assay endpoint: MIC E. faecalis ATCC29212

compound	reported value
C=C1NC(=O)C2NC(=O)[C@H](CC(C)C)NC(=O)C(NC(=O)[C@@H]3CSC(C)C(NC(=O)[C@H](Cc4ccccc4)NC(=O)C4NC(=O)[C@@H](N)CSC4C)C(=O)N[C@@H](CC(C)C)C(=O)N4CCC[C@H]4C(=O)NCC(=O)NCC(=O)NCC(=O)N[C@@H](C)C(=O)N[C@@H](C(C)C)C(=O)N3)C(C)SC[C@H](NC(=O)[C@H](CCC(=O)O)NC1=O)C(=O)N[C@@H]([C@@H](C)CC)C(=O)NC=CSC2C (some centres unmarked) [G10A]	>64 mg/L
C=C1NC(=O)C2NC(=O)[C@H](CC(C)C)NC(=O)C(NC(=O)[C@@H]3CSC(C)C(NC(=O)[C@H](Cc4ccccc4)NC(=O)C4NC(=O)[C@@H](N)CSC4C)C(=O)N[C@@H](CC(C)C)C(=O)N4CCC[C@H]4C(=O)NCC(=O)NCC(=O)N[C@@H](CO)C(=O)NCC(=O)N[C@@H](C(C)C)C(=O)N3)C(C)SC[C@H](NC(=O)[C@H](CCC(=O)O)NC1=O)C(=O)N[C@@H]([C@@H](C)CC)C(=O)NC=CSC2C (some centres unmarked)	>64 mg/L

###

Measured MIC E. faecium 7131121 VRE, listed per entry.
# Tested on: E. faecium 7131121 VRE
# Assay type: cell-based
# run parameters: 7131121 VRE
# Experimental: Antibacterial activity of fermentation samples or purified samples was determined by Mueller-Hinton Agar diffusion bioassays using M. luteus ATCC 4698 as the indicator strain. Susceptibility testing (minimum inhibitory concentration [MIC]) for all aerobic organisms, with the exception of S. pneumoniae, was performed following the recommendations of CLSI. […]

compound	readout relation	MIC E. faecium 7131121 VRE [µg/mL]
C=C1NC(=O)C2NC(=O)[C@H](CC(C)C)NC(=O)C(NC(=O)[C@@H]3CSC(C)C(NC(=O)[C@H](Cc4ccccc4)NC(=O)C4NC(=O)[C@@H](N)CSC4C)C(=O)N[C@@H](CC(C)C)C(=O)N4CCC[C@H]4C(=O)NCC(=O)NCC(=O)N[C@@H](CO)C(=O)NCC(=O)N[C@@H](C(C)C)C(=O)N3)C(C)SC[C@H](NC(=O)[C@H](CCC(=O)O)NC1=O)C(=O)N[C@@H]([C@@H](C)CC)C(=O)NC=CSC2C (some centres unmarked) [G9S]	>	64
C=C1NC(=O)C2NC(=O)[C@H](CC(C)C)NC(=O)C(NC(=O)[C@@H]3CSC(C)C(NC(=O)[C@H](Cc4ccccc4)NC(=O)C4NC(=O)[C@@H](N)CSC4C)C(=O)N[C@@H](CC(C)C)C(=O)N4CCC[C@H]4C(=O)NCC(=O)N[C@@H](CCC(N)=O)C(=O)NCC(=O)NCC(=O)N[C@@H](C(C)C)C(=O)N3)C(C)SC[C@H](NC(=O)[C@H](CCC(=O)O)NC1=O)C(=O)N[C@@H]([C@@H](C)CC)C(=O)NC=CSC2C (some centres unmarked) [G8Q]	>	64
C=C1NC(=O)C2NC(=O)[C@H](CC(C)C)NC(=O)C(NC(=O)[C@@H]3CSC(C)C(NC(=O)[C@H](Cc4ccccc4)NC(=O)C4NC(=O)[C@@H](N)CSC4C)C(=O)N[C@@H](CC(C)C)C(=O)N4CCC[C@H]4C(=O)NCC(=O)NCC(=O)NCC(=O)N[C@@H](C(C)C)C(=O)N[C@@H](C(C)C)C(=O)N3)C(C)SC[C@H](NC(=O)[C@H](CCC(=O)O)NC1=O)C(=O)N[C@@H]([C@@H](C)CC)C(=O)NC=CSC2C (some centres unmarked) [G10V]	>	64
CC[C@H](C)[C@@H]1NC(=O)[C@@H]2CSC(C)C(NC(=O)[C@@H]3CSC(C)C(NC(=O)[C@H](Cc4ccccc4)NC(=O)C4NC(=O)[C@@H](N)CSC4C)C(=O)N[C@@H](CC(C)C)C(=O)N4CCC[C@H]4C(=O)NCC(=O)NCC(=O)NCC(=O)NCC(=O)N[C@@H](C(C)C)C(=O)N3)C(=O)N[C@@H](CC(C)C)C(=O)NC(C(=O)NCC(=O)N[C@@H](CCC(=O)O)C(=O)N2)C(C)SC=CNC1=O (some centres unmarked) [S16G]	=	64
C=C1NC(=O)C2NC(=O)[C@H](CC(C)C)NC(=O)C(NC(=O)[C@@H]3CSC(C)C(NC(=O)[C@H](Cc4ccccc4)NC(=O)C4NC(=O)[C@@H](N)CSC4C)C(=O)N[C@@H](CC(C)C)C(=O)N4CCC[C@H]4C(=O)NCC(=O)NCC(=O)NCC(=O)NCC(=O)N[C@@H]([C@@H](C)CC)C(=O)N3)C(C)SC[C@H](NC(=O)[C@H](CCC(=O)O)NC1=O)C(=O)N[C@@H]([C@@H](C)CC)C(=O)NC=CSC2C (some centres unmarked) [V11I]	=	16

###

Measured MIC S. epidermidis NCTC11047, listed per entry.
# Tested on: S. epidermidis NCTC11047
# Assay type: cell-based
# run parameters: NCTC11047
assay endpoint: MIC S. epidermidis NCTC11047 (µg/mL)

compound	reported value
C=C1NC(=O)C2NC(=O)[C@H](CC(C)C)NC(=O)C(NC(=O)[C@@H]3CSC(C)C(NC(=O)[C@H](Cc4ccccc4)NC(=O)C4NC(=O)[C@@H](N)CSC4C)C(=O)N[C@@H](CC(C)C)C(=O)N4CCC[C@H]4C(=O)NCC(=O)NCC(=O)NCC(=O)N[C@@H](C(C)C)C(=O)N[C@@H](C(C)C)C(=O)N3)C(C)SC[C@H](NC(=O)[C@H](CCC(=O)O)NC1=O)C(=O)N[C@@H]([C@@H](C)CC)C(=O)NC=CSC2C (stereo partly drawn) [G10V]	64
C=C1NC(=O)C2NC(=O)[C@H](CC(C)C)NC(=O)C(NC(=O)[C@@H]3CSC(C)C(NC(=O)[C@H](Cc4ccccc4)NC(=O)C4NC(=O)[C@@H](N)CSC4C)C(=O)N[C@@H](CC(C)C)C(=O)N4CCC[C@H]4C(=O)NCC(=O)N[C@@H](Cc4c[nH]cn4)C(=O)NCC(=O)NCC(=O)N[C@@H](C(C)C)C(=O)N3)C(C)SC[C@H](NC(=O)[C@H](CCC(=O)O)NC1=O)C(=O)N[C@@H]([C@@H](C)CC)C(=O)NC=CSC2C (stereo partly drawn) [G8H]	64
C=C1NC(=O)C2NC(=O)[C@H](CC(C)C)NC(=O)C(NC(=O)[C@@H]3CSC(C)C(NC(=O)[C@H](Cc4ccccc4)NC(=O)C4NC(=O)[C@@H](N)CSC4C)C(=O)N[C@@H](CC(C)C)C(=O)N4CCC[C@H]4C(=O)NCC(=O)NCC(=O)N[C@@H](Cc4c[nH]cn4)C(=O)NCC(=O)N[C@@H](C(C)C)C(=O)N3)C(C)SC[C@H](NC(=O)[C@H](CCC(=O)O)NC1=O)C(=O)N[C@@H]([C@@H](C)CC)C(=O)NC=CSC2C (stereo partly drawn) [G9H]	32
